Record form. Attribute: log10(IC50). Fill in for each entry.
- Test system: human colorectal cancer HCT116 cells
- experimentDescription: Inhibitory effect on growth of human cancer cells (in vitro), WST-8
- Type: cell-based
- testConditions: Homo sapiens, HCT-116, 96 h, 96 hours culture
Please interpret these as log10 of IC50 where IC50 is in nM.

log10(IC50) in this record for Cc1[nH]c(-c2nnc(C3CC3)o2)c(C)c1C(=O)c1ccc(OCCN)c(Br)c1 [Compound 256] : 1.64

Form: molecule = COc1ccc(C(=O)c2c(C)[nH]c(-c3nnc(C4CC4)o3)c2C)cc1Br [Compound 198] ; log10(IC50) = -0.05

The reported log10(IC50) of the molecule COc1ccc(C(=O)c2c(C(C)O)[nH]c(-c3nnn(CCOC(C)=O)n3)c2C)cc1Br (stereo not shown) [Compound 130] was 1.57

CCc1nnc(-c2[nH]c(C)c(C(=O)c3cccc([N+](=O)[O-])c3)c2C)o1 [Compound 195] yielded log10(IC50) of 1.00

The measured log10(IC50) associated with Cc1[nH]c(-c2nnn(CCN)n2)c(Br)c1C(=O)c1cccc(Br)c1 [Compound 290] reads 2.26

Entry Cc1[nH]c(-c2nnc(C(F)F)o2)c(C)c1C(=O)c1cccc(Br)c1 [Compound 186] — recorded log10(IC50) = 1.81

Query COc1ccc(C(=O)c2c(CO)[nH]c(-c3nnn(CCOC(C)=O)n3)c2C)cc1Br [Compound 128] yields log10(IC50) of 1.35

So, COc1ccc(C(=O)c2c(C=O)[nH]c(-c3nnn(CCO)n3)c2C)cc1Br [Compound 125] ? Its log10(IC50) was 1.97

Noted for CCc1nnc(-c2c(C)c(C(=O)c3cccc(Br)c3)c(C)n2C(=O)COC(C)=O)o1 [Compound 226] : its log10(IC50) reads -0.40

// field: log10(IC50); key: Cc1c(-c2nnc(C3CC3)o2)[nH]c(C2SCCCS2)c1C(=O)c1cccc(Br)c1 [Compound 200] ; value = 2.81

COc1ccc(Br)cc1C(=O)c1c(C=O)[nH]c(-c2nnc(C3CC3)o2)c1C [Compound 258] yielded log10(IC50) of 1.66

Form: molecule = Cc1c(-c2nnn(CCO)n2)[nH]c(C(F)F)c1C(=O)c1cccc(Br)c1 [Compound 119] ; log10(IC50) = 2.16

log10(IC50) in this record for Cc1c(-c2nnn(CCO)n2)[nH]c(C=O)c1C(=O)c1cccc(Br)c1 [Compound 117] : 2.07

In plain terms, CCc1nnc(-c2c(C)c(C(=O)c3cccc(Br)c3)c(C)n2C(=O)c2ccccc2)o1 [Compound 237] has a documented log10(IC50) of -0.22

Reported log10(IC50) ( COc1ccc(Br)cc1C(=O)c1c(CO)[nH]c(-c2nnc(C3CC3)o2)c1C [Compound 259] ) = 1.59

Just so you know, measured log10(IC50) for Cc1[nH]c(-c2nnc(CCO)o2)c(C)c1C(=O)c1cccc(Br)c1 [Compound 205] came out at 1.57

Record summary for Cc1[nH]c(-c2nnc(C3CC3)o2)c(C)c1C(=O)c1cccc(CO)c1 [Compound 199] : reported log10(IC50) = 1.03

Entry under test: COc1ccc(C(=O)c2c(C(C)O)[nH]c(-c3nnc(C4CC4)o3)c2C)cc1Br (stereo not shown) [Compound 268] . Its log10(IC50) was 0.40

Documented log10(IC50) of Cc1[nH]c(-c2nnc(C3(O)CC3)o2)c(C)c1C(=O)c1cccc(Br)c1 [Compound 188] : 1.61

Measured log10(IC50), CCc1nnc(-c2c(C)c(C(=O)c3cccc(Br)c3)c(C)n2C(C)=O)o1 [Compound 224] : 0.23

Entry COc1ccc(Br)cc1C(=O)c1c(C)[nH]c(-c2nnc(COC(C)=O)o2)c1C [Compound 202] — recorded log10(IC50) = 1.80

Noted for Cc1noc(-c2[nH]c(C)c(C(=O)c3cccc(Br)c3)c2C)n1 [Compound 271] : its log10(IC50) reads 1.70

Input COc1ccc(C(=O)c2c(C(F)F)[nH]c(-c3nnn(CCO)n3)c2C)cc1Br [Compound 127] . Output log10(IC50): 1.61

Consider Cc1[nH]c(-c2nnc(CCCl)o2)c(C)c1C(=O)c1cccc(Br)c1 [Compound 174] . Its measured log10(IC50) is 1.65

So, COc1ccc(C(=O)c2c(CO)[nH]c(-c3nnn(CCO)n3)c2C)cc1Br [Compound 129] ? Its log10(IC50) was 1.61

The measured log10(IC50) associated with CCc1nnc(-c2c(C)c(C(=O)c3cccc(Br)c3)c(C)n2CCO)o1 [Compound 236] reads 2.36

The molecule listed as Cc1[nH]c(-c2nnc(C3CC3)o2)c(C)c1C(=O)c1cc(Br)ccc1O [Compound 241] shows log10(IC50) equal to 0.15

Entry CNC(=O)c1[nH]c(-c2nnn(CCO)n2)c(C)c1C(=O)c1cccc(Br)c1 [Compound 142] , log10(IC50) reported as 2.29

The value of log10(IC50) measured for the molecule Cc1[nH]c(-c2nnn(CCN)n2)c(C)c1C(=O)c1cccc(Br)c1 [Compound 103] turned out to be 2.26

// log10(IC50) lookup, molecule = Cc1[nH]c(-c2nnc(C3CC3)o2)c(C)c1C(=O)c1ccc(O)c(Br)c1 [Compound 254] , result: 1.65

Record COc1ccc(C(=O)c2c(/C=N/O)[nH]c(-c3nnn(CCOC(C)=O)n3)c2C)cc1Br [Compound 169] . Reported log10(IC50): 2.21

# log10(IC50) (molecule: CC(=O)OCCn1nnc(-c2[nH]c(C#N)c(C(=O)c3cccc(Br)c3)c2C)n1 [Compound 132] ) is 2.22

Entry COc1ccc(C(=O)c2c(C=O)[nH]c(-c3nnc(C4CC4)o3)c2C)cc1Br [Compound 263] — recorded log10(IC50) = 1.73

Documented log10(IC50) of CCc1nnc(-c2[nH]c(C)c(C(=O)c3cccc(Br)c3)c2C)o1 [Compound 173] : 0.04

###

- Test system: human colorectal cancer HT-29 cells
- experimentDescription: Inhibitory effect on growth of human cancer cells (in vitro), WST-8
- Type: cell-based
- testConditions: Homo sapiens, HT-29, 96 h, 96 hours culture, read-out: IC50 (nM) HT29
Simple rule here: IC50 less than 30 nM is met, otherwise not met.

State whether 30 nM exceeds IC50 recorded for COc1ccc(C(=O)c2c(C3SCCCS3)[nH]c(-c3nnc(C4CC4)o3)c2C)cc1Br . not met

# strict comparison: is reported IC50 < 30 nM? input = Cc1[nH]c(-c2nnc(C(F)F)o2)c(C)c1C(=O)c1cccc(Br)c1 not met

Would you kindly verify if IC50 of COc1ccc(C(=O)c2c(CN3CCCCC3)[nH]c(-c3nnc(C4CC4)o3)c2C)cc1Br is strictly less than 30 nM? not met

hey, is IC50 for Cc1c(-c2nnn(CCO)n2)[nH]c(C=O)c1C(=O)c1cccc(Br)c1 lower than 30 nM or not? not met

Is 30 nM strictly greater than the molecule's reported IC50? molecule: COc1ccc(C(=O)c2c(C(F)F)[nH]c(-c3nnn(CCOC(C)=O)n3)c2C)cc1Br not met

Criterion: IC50 strictly below 30 nM. Is it met by CCn1nnc(-c2[nH]c(C)c(C(=O)c3cccc(Br)c3)c2C)n1 ? met

###

- Tested on: human colorectal cancer HCT116 cells
- experimentDescription: Inhibitory effect on growth of human cancer cells (in vitro), WST-8
- Format: cell-based
- testConditions: Homo sapiens, HCT-116, 96 h, 96 hours culture
assayReadout: IC50 (nM)
Supply the numeric figure in nM, leaving out any unit text.

response.value for COc1ccc(C(=O)c2c(C=O)[nH]c(-c3nnn(CCOC(C)=O)n3)c2C)cc1Br (field: IC50) = 37.8

IC50 in this record for Cc1[nH]c(-c2nnn(CCO)n2)c(C)c1C(=O)c1cccc(C2CC2)c1 : 41

Summary for this compound, CCc1nnc(-c2c(C)c(C(=O)c3cccc(Br)c3)c(C)n2C)o1 : IC50 is 46.9

###

- System: human colorectal cancer HT-29 cells
- experimentDescription: Inhibitory effect on growth of human cancer cells (in vitro), WST-8
- Format: cell-based
- testConditions: Homo sapiens, HT-29, 96 h, 96 hours culture, read-out: IC50 (nM) HT29
Exercise: for every item that follows, state its recorded IC50.
Number in nM, nothing else.

Notebook: Cc1[nH]c(-c2nnn(CCN)n2)c(C)c1C(=O)c1cccc(Br)c1 [Compound 103] , IC50 read as 43.3

// Cc1[nH]c(-c2nnc(C3(O)CC3)o2)c(C)c1C(=O)c1cccc(Br)c1 [Compound 188] : IC50 value = 35.1

The compound identified as COc1ccc(C(=O)c2c(C=O)[nH]c(-c3nnc(C4CC4)o3)c2C)cc1Br [Compound 263] registered its IC50 at 32.5

Lab note: CCc1nnc(-c2c(C)c(C(=O)c3cccc(Br)c3)c(C)n2C(=O)COC(C)=O)o1 [Compound 226] gave IC50 of 0.3

Measured IC50 of CCc1nnc(-c2c(C)c(C(=O)c3cccc(Br)c3)c(C)n2CCO)o1 [Compound 236] : 168

Recorded result, Cc1[nH]c(-c2nnn(CCO)n2)c(C)c1C(=O)c1cccc(CO)c1 [Compound 163] , IC50: 73.8

Reported IC50 of COc1ccc(C(=O)c2c(C(F)F)[nH]c(-c3nnn(CCO)n3)c2C)cc1Br [Compound 127] : 36.9

Reported IC50 of COc1ccc(C(=O)c2c(/C=N/O)[nH]c(-c3nnn(CCOC(C)=O)n3)c2C)cc1Br [Compound 169] : 167

Quick note, IC50 for Cc1c(-c2nnn(CCO)n2)[nH]c(C(C)O)c1C(=O)c1cccc(Br)c1 (centres unmarked) [Compound 123] landed at 39.5

The recorded IC50 for entry CCn1nnc(-c2[nH]c(C)c(C(=O)c3ccc(OCCN)c(Br)c3)c2C)n1 [Compound 167] equals 31.5

The reported value for COc1ccc(C(=O)c2c(CCl)[nH]c(-c3nnn(CCOC(C)=O)n3)c2C)cc1Br [Compound 172] in terms of IC50 is 34.5

// sample CCc1nnc(-c2[nH]c(C)c(C(=O)c3ccc(OCCN)c(Br)c3)c2C)o1 [Compound 251] , its IC50 was 102

Given item CCc1nnc(-c2c(C)c(C(=O)c3cccc(Br)c3)c(C)n2C(C)=O)o1 [Compound 224] , the value recorded as its IC50 is 1.3

Short answer for C=Cc1nnc(-c2[nH]c(C)c(C(=O)c3cccc(Br)c3)c2C)o1 [Compound 206] : IC50 was 8.8

The compound identified as COc1cccc(C(=O)c2c(C)[nH]c(-c3nnn(CCO)n3)c2C)c1 [Compound 107] registered its IC50 at 16.1

Measured IC50, COc1ccc(C(=O)c2c(C=O)[nH]c(-c3nnn(CCO)n3)c2C)cc1Br [Compound 125] : 35.2

The reported value for CNC(=O)c1[nH]c(-c2nnn(CCO)n2)c(C)c1C(=O)c1cccc(Br)c1 [Compound 142] in terms of IC50 is 176

So, COc1ccc(C(=O)c2c(C#N)[nH]c(-c3nnn(CCOC(C)=O)n3)c2C)cc1Br [Compound 138] ? Its IC50 was 170

The compound identified as Cc1[nH]c(-c2nnc(CCO)o2)c(C)c1C(=O)c1cccc(Br)c1 [Compound 205] registered its IC50 at 20.3

Record summary for COC(=O)c1[nH]c(-c2nnn(CCO)n2)c(C)c1C(=O)c1cccc(Br)c1 [Compound 137] : reported IC50 = 156

Note to self: IC50 recorded for Cc1[nH]c(-c2nnc(C3CC3)o2)c(C)c1C(=O)c1cccc(CO)c1 [Compound 199] was 9

Documented IC50 of CCc1cnc(-c2[nH]c(C)c(C(=O)c3cccc(Br)c3)c2C)o1 [Compound 272] : 42

Entry COc1ccc(C(=O)c2c(C(C)O)[nH]c(-c3nnn(CCO)n3)c2C)cc1Br (centres unmarked) [Compound 131] ; IC50 = 34.8
